Target: FAP (Homo sapiens, UniProt Q12884)
Sequence (Q12884 whole entry): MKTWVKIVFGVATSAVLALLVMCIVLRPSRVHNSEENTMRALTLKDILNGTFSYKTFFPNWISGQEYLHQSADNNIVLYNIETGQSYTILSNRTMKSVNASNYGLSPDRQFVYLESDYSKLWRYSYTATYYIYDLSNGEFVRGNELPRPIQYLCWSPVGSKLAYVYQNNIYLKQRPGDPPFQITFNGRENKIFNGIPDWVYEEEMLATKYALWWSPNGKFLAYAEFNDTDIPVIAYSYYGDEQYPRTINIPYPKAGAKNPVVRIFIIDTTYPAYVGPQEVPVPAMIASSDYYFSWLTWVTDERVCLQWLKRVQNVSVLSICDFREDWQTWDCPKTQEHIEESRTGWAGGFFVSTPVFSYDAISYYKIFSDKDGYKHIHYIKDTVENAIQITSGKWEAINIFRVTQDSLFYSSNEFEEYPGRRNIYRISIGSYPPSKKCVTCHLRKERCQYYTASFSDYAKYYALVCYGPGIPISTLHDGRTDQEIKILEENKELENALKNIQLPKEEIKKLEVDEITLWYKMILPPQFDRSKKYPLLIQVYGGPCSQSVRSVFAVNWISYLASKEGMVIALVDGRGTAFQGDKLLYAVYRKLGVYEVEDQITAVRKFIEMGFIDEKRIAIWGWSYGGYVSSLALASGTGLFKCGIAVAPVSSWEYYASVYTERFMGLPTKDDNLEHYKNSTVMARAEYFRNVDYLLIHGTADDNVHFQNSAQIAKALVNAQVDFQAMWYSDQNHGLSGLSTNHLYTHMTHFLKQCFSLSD
Where a name gives a salt, the structure may show the parent alone.
Property Name: IC50 (nM)
Please respond with the number in nM and leave the unit unwritten.

Reported IC50 for COC(=O)N1C[C@H]2C[C@@H](NCC(=O)N3CCC[C@H]3C#N)C[C@H]2C1 (relative stereo) [Example 2, hydrochloride] was 476

* * *

Molecular target: QPP (Homo sapiens)
Assay: Selective activity determination of DPPIV inhibitors, recombinant enzyme, fluorescence substrate
Settings: recombinant protein from insect expression system
Where a name gives a salt, the structure may show the parent alone.
Property Name: IC50

Reported IC50 for COC(=O)N1C[C@H]2C[C@@H](NCC(=O)N3CCC[C@H]3C#N)C[C@H]2C1 (relative stereo) [Example 2, hydrochloride] was > 56 µM

* * *

Biological target: DPPIV (Homo sapiens)
Sequence (P27487 whole entry): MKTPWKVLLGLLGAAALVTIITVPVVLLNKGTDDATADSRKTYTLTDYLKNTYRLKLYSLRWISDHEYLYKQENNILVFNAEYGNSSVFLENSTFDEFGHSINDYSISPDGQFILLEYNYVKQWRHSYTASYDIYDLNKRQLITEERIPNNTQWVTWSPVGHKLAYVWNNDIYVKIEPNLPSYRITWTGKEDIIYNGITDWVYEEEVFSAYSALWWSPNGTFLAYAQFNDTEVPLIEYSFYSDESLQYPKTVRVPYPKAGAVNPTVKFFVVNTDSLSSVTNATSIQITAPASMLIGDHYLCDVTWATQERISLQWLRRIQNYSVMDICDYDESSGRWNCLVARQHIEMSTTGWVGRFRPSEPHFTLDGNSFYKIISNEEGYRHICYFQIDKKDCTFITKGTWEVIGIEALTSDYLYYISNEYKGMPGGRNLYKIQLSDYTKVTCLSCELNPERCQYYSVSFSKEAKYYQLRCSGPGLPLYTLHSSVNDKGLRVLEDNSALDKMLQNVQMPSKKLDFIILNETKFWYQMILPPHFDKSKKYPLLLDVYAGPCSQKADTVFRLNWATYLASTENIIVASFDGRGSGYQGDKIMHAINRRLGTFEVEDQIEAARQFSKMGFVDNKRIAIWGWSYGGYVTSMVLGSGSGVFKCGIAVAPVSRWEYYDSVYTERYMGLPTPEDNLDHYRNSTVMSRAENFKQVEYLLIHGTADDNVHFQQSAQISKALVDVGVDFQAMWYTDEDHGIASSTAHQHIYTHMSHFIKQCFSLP
Experiment: Selective activity determination of DPPIV inhibitors, recombinant enzyme, fluorescence substrate
Where a name gives a salt, the structure may show the parent alone.
Property Name: IC50 (nM)
Please respond with the number in nM and leave the unit unwritten.

Entry COC(=O)N1C[C@H]2C[C@@H](NCC(=O)N3CCC[C@H]3C#N)C[C@H]2C1 (relative stereo) [Example 2, hydrochloride] , DPPIV (Homo sapiens) data, IC50 value: 98

// data source = patent US8178575B2
